experimental system: MsrA/B
Construct: recombinant, msr gene of strain 1291 in pET15b (NdeI/XhoI primers), His-tagged, E. coli BL21 Star (DE3)pLysS, TALON purified; full protein 522 aa; amine-coupled to SPR chip
assay overview: SPR, Biacore T200, single cycle kinetics, MsrA/B immobilized by amine coupling on CM5 chip
condition set: free Met(O) 0.16-100 nM; no serum; substrate; sulfoxide epimer and D/L form not told
pKd: −log10 of the molar value.
reported property: pKd

| compound | reported property | readout value |
| --- | --- | --- |
| C[S+]([O-])CC[C@H](N)C(=O)O (stereo partly shown) [Met(O)] | pKd | 7.81 |
